# ASSAY SYSTEM: MMP-1 (Homo sapiens)
# Sequence (P03956 100-469): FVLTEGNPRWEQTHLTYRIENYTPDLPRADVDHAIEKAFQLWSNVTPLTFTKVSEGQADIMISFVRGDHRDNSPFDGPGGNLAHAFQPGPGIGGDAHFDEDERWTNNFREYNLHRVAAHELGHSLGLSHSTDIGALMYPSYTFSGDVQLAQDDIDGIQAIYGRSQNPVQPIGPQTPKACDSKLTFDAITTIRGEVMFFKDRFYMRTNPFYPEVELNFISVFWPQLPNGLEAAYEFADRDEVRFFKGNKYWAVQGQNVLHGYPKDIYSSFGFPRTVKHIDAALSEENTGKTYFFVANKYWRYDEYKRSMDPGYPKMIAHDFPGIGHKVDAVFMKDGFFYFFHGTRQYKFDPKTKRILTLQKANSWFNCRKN
# PROCEDURE TEXT: MMP-1 inhibitory action (Type I collagen Activity Measurement kit, FITC-labeled collagen type I)
# Assay type: biochemical
# EXPERIMENTAL CONDITIONS: Experimental Example 2; read-out: IC50 MMP1
pIC50: −log10 of the molar value.
PROPERTY NAME: pIC50

Below, 6 compounds whose answers are already recorded.
Cc1cc(N2CCN(S(=O)(=O)N[C@@]3(C(=O)O)C(C)[C@@H]3c3ccccc3)CC2=O)no1 (stereo partly shown) [Example 2-476] :: ≤ 5.00
Cc1nnc(N2CCN(S(=O)(=O)N[C@@]3(C(=O)O)C(C)[C@@H]3c3ccccc3)CC2)s1 (stereo partly shown) [Example 2-465] :: ≤ 5.00
CCC1[C@@H](c2ccccc2)[C@@]1(NS(=O)(=O)c1ccc(-c2cc(C(F)(F)F)on2)s1)C(=O)O (stereo partly shown) [Example 2-327] :: > 6.00
CC1C(c2ccccc2)C1(NS(=O)(=O)c1ccc(-c2cccc(CN3CCOCC3)c2)s1)C(=O)O (stereo not shown) [Example 2-540] :: ≤ 6.00
CCOC(=O)CSCC1(c2ccccc2)CC1(NS(=O)(=O)c1ccc(-c2ccc(Cl)cc2)s1)C(=O)O (stereo not shown) [Example 2-352] :: ≤ 6.00
O=C(OCC1(c2ccccc2)CC1(NS(=O)(=O)c1ccc(-c2cc(C(F)(F)F)on2)s1)C(=O)O)N1CCOCC1 (stereo not shown) [Example 2-306] :: ≤ 6.00

Quick note, pIC50 for COCC1C(c2ccccc2)C1(NS(=O)(=O)c1ccc(-c2cc(C(F)(F)F)on2)s1)C(=O)O (stereo not shown) [Example 2-539] landed at > 6.00

----------
The entries below come with measured pIC50 values attached.
# ASSAY SYSTEM: UniProt P03956
# PROCEDURE TEXT: MMP-1 inhibitory action (Type I collagen Activity Measurement kit, FITC-labeled collagen type I)
# Type: biochemical
# EXPERIMENTAL CONDITIONS: Experimental Example 2; read-out: IC50 MMP1
pIC50: −log10 of the molar value.

Below, 6 compounds whose answers are already recorded.
C[C@]1(c2ccccc2)C[C@@]1(NS(=O)(=O)c1ccc(-c2cccc(C(F)(F)CO)c2)s1)C(=O)O :: ≤ 5.00
O=C(O)C1(NS(=O)(=O)c2ccc(-c3ccc(Cl)cc3)s2)C2CCNc3ccccc3C21 (centres unmarked) :: ≤ 6.00
C[C@]1(c2cccc(F)c2)C[C@@]1(NS(=O)(=O)c1ccc(-c2cc(C(F)(F)F)on2)s1)C(=O)O :: > 6.00
CC1C(c2ccccc2)C1(NS(=O)(=O)c1ccc(CCc2ccccc2)s1)C(=O)O (centres unmarked) :: ≤ 6.00
CC(C)SCC1(c2ccccc2)CC1(NS(=O)(=O)c1ccc(-c2ccc(Cl)cc2)s1)C(=O)O (centres unmarked) :: ≤ 5.00
Cc1cc(-c2ccc(S(=O)(=O)N[C@@]3(C(=O)O)C(C)[C@@H]3c3ccccc3)s2)no1 (some centres unmarked) :: > 6.00

Quick note, pIC50 for NCC1(c2ccccc2)CC1(NS(=O)(=O)c1ccc(-c2ccc(Cl)cc2)s1)C(=O)O (centres unmarked) landed at ≤ 5.00

Quick note, pIC50 for C[C@]1(c2ccccc2)C[C@@]1(NS(=O)(=O)c1ccc(-c2ccc(F)c(C#N)c2)s1)C(=O)O landed at ≤ 5.00

Quick note, pIC50 for O=C(O)C1(NS(=O)(=O)c2ccc(-c3cc(C(F)(F)F)on3)s2)CC1c1cc(CO)on1 (centres unmarked) [Example 2-318] landed at ≤ 5.00

Quick note, pIC50 for O=C(O)C1(NS(=O)(=O)c2ccc(-c3cc(C(F)(F)F)on3)s2)C2CCCc3ccccc3C21 (centres unmarked) landed at ≤ 6.00

Quick note, pIC50 for O=C(NCC1(c2ccccc2)CC1(NS(=O)(=O)c1ccc(-c2ccc(Cl)cc2)s1)C(=O)O)N1CCOCC1 (centres unmarked) landed at ≤ 5.00

Where do the numbers come from? From patent US20080261994A1.
